// values below are reported Latency of dark cabin, Study
Tested on: cerebral ischemia-reperfusion injury of mice
MEASUREMENT_NOTES: Memory step-through test after cerebral ischemia-reperfusion injury
Assay type: in vivo, NIH mice
CONDITION_SET: 4.5 mg/kg intragastric once a day for 10 days, n=10
OUTCOME_MEASURE: Latency of dark cabin, Study (s)

1) C[C@]12CC[C@H](OC(=O)CCCC(=O)O[C@H]3CC[C@@]4(C)C(=CC[C@@H]5[C@@H]4CC[C@]4(C)C(=O)CC[C@@H]54)C3)CC1=CC[C@@H]1[C@@H]2CC[C@]2(C)C(=O)CC[C@@H]12: 24.1
2) CC12CCC3C(CC=C4CC(OC(=O)CCC(=O)OC5CCC6(C)C(=CCC7C8CCC(=O)C8(C)CCC76)C5)CCC43C)C1CCC2=O (stereo not shown): 37.3
3) C[C@]12CC[C@H](OC(=O)CC(=O)O[C@H]3CC[C@@]4(C)C(=CC[C@@H]5[C@@H]4CC[C@]4(C)C(=O)CC[C@@H]54)C3)CC1=CC[C@@H]1[C@@H]2CC[C@]2(C)C(=O)CC[C@@H]12: 24.4
4) C[C@]12CC[C@H](OC(=O)CCCCC(=O)O[C@H]3CC[C@@]4(C)C(=CC[C@@H]5[C@@H]4CC[C@]4(C)C(=O)CC[C@@H]54)C3)CC1=CC[C@@H]1[C@@H]2CC[C@]2(C)C(=O)CC[C@@H]12: 28.7

Entry source: patent US20040171594A1
